Entries and their measured growth at 10 µM follow.
Tested on: MDA-MB-231
test details: Cytotoxicity against human MDA-MB-231 cells assessed as cell growth at 10 uM after 48 hrs by SRB assay relative to control
Format: functional
condition context: MDA-MB-231, 48 h, read-out: Activity
measurement label: growth at 10 µM (%)

INSERT INTO assay_data (compound_string, measurement_label, value_measured) VALUES
  ('CC(C)n1cc(C2=C(c3cn(C)c4ccccc34)C(=O)N(O)C2=O)c2ccccc21', 'growth at 10 µM', 70.1),
  ('Cn1cc(C2=C(c3cn(CCCCCC(=O)O)c4ccccc34)C(=O)N(O)C2=O)c2ccccc21', 'growth at 10 µM', 84.7),
  ('O=C(O)CCCCCn1cc(C2=C(c3c[nH]c4ccccc34)C(=O)N(O)C2=O)c2ccccc21', 'growth at 10 µM', 92.6),
  ('N#CCCCCCn1cc(C2=C(c3cn(CCCCCC#N)c4ccccc34)C(=O)NC2=O)c2ccccc21', 'growth at 10 µM', 81.4),
  ('Cn1cc(C2=C(c3c[nH]c4ccccc34)C(=O)N(O)C2=O)c2ccccc21', 'growth at 10 µM', 59.5),
  ('Cn1cc(C2=C(c3cn(C)c4ccccc34)C(=O)N(O)C2=O)c2ccccc21', 'growth at 10 µM', 98),
  ('CC(C)n1cc(C2=C(c3c[nH]c4ccccc34)C(=O)N(O)C2=O)c2ccccc21', 'growth at 10 µM', 89.5),
  ('O=C1C2=C(C(=O)N1O)c1cn(c3ccccc13)CCCCCCn1cc2c2ccccc21', 'growth at 10 µM', 104),
  ('Cn1cc(C2=C(c3cn(CCCCCC#N)c4ccccc34)C(=O)N(O)C2=O)c2ccccc21', 'growth at 10 µM', 58.9);

###

Entries and their measured Activity follow.
assayed target: Glycogen synthase kinase-3 (Sus scrofa) (UniProt B2LUN4+I6LNT8)
test details: Inhibition of domestic porcine brain full length GSK-3alpha/beta assessed as residual activity at 10 uM using GS-1 as substrate in presence of [gamma-33P]ATP
condition context: Sus scrofa domesticus
measurement label: Activity

INSERT INTO results (compound_string, value_measured) VALUES
  ('CCn1cc(C2=C(c3cn(C)c4ccccc34)C(=O)N(O)C2=O)c2ccccc21', '-12%'),
  ('CC(C)n1cc(C2=C(c3c[nH]c4ccccc34)C(=O)N(O)C2=O)c2ccccc21', '2%'),
  ('CCn1cc(C2=C(c3cn(C(C)C)c4ccccc34)C(=O)N(O)C2=O)c2ccccc21', '-20%'),
  ('N#CCCCCCn1cc(C2=C(c3cn(CCCCCC#N)c4ccccc34)C(=O)NC2=O)c2ccccc21', '11%'),
  ('N#CCCCCCn1cc(C2=C(c3cn(CCCCCC#N)c4ccccc34)C(=O)N(O)C2=O)c2ccccc21', '5%'),
  ('O=C1C(c2c[nH]c3ccccc23)=C(c2c[nH]c3ncccc23)C(=O)N1O', '45%'),
  ('O=C(O)CCCCCn1cc(C2=C(c3c[nH]c4ccccc34)C(=O)N(O)C2=O)c2ccccc21', '8%'),
  ('Cn1cc(C2=C(c3c[nH]c4ccccc34)C(=O)N(O)C2=O)c2ccccc21', '-18%'),
  ('Cn1cc(C2=C(c3cn(C)c4ccccc34)C(=O)N(O)C2=O)c2ccccc21', '-13%');
